system: HCC-2998 colon; test: NCI tumour cell line growth inhibition, 48 h
readout: TGI (µM)
Provide only the numeric value, understood in µM.

[
  {
    "itemSmiles": "NCCCc1ccc2oc3ccccc3c2c1",
    "unitAnnotation": "µM",
    "TGI": 22.5
  }
]

-- ask Could you tell me which TGI is on file for `O=c1cccccc1NCCCCCCCCCNc1cccccc1=O` ?
-- reply 78.7

-- ask Can you handle `CCCCCCCC(=O)N/N=C/c1ccc(Sc2nccn2C)c([N+](=O)[O-])c1` next?
-- reply 26.5

-- ask Try this compound next: `CN(C)CCNC(=O)c1ccc(Cl)c2c(Nc3ccc(S(N)(=O)=O)cc3)c3ccccc3nc12`
-- reply 14.8
